target: Neuronal acetylcholine receptor; alpha4/beta2 (Rattus norvegicus, UniProt P09483+P12390); experiment: Displacement of [3H]epibatidine from alpha4beta2 nAChR in Sprague-Dawley rat brain cortical membrane after 3 hrs by liquid scintillation spectrometric analysis
Sequence (P09483 whole entry): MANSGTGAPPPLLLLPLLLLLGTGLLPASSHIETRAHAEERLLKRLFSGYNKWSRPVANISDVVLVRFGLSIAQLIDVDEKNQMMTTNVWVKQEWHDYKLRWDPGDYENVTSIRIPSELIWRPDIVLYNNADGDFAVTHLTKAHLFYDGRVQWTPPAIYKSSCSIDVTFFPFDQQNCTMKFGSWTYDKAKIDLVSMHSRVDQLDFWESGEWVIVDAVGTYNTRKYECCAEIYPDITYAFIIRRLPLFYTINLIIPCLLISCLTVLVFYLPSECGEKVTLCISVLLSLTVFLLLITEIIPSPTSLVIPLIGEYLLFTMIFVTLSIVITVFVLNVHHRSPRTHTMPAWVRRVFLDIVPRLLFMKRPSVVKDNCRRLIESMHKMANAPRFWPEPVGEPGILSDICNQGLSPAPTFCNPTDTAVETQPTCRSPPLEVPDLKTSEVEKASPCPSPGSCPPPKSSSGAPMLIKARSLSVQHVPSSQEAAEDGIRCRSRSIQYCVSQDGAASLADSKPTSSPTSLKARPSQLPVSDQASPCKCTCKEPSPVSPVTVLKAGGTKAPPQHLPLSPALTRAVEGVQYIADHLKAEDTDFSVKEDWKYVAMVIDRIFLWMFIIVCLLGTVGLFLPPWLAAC
Sequence (P12390 whole entry): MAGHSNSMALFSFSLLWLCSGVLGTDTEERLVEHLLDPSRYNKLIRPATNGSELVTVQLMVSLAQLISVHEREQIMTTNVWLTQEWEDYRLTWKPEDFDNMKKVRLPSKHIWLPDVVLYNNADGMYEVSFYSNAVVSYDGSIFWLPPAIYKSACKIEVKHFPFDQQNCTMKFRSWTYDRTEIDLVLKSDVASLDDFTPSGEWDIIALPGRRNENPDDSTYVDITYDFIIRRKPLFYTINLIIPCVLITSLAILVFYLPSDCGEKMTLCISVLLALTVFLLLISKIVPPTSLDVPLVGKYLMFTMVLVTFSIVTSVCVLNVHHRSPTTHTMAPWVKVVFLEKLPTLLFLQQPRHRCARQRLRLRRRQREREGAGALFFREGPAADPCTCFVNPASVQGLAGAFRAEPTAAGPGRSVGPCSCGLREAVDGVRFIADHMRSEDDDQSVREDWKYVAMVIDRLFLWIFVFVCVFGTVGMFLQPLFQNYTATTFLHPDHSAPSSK
MEASURED_ATTRIBUTE: pIC50
Units for pIC50: none; it is -log10 of a concentration expressed in mol/L.

# annotated cases, reported pIC50 shown
CN[C@H](C)Cc1ccc2c(c1)OCO2: 4.87
CN[C@@H](C)Cc1ccc2c(c1)OCO2: 3.76

[Q] Please supply the value of reported pIC50 for the item CNC(C)Cc1ccc2c(c1)OCO2 (racemic)
[A] 4.52
